Molecular target: IDE (Homo sapiens)
Construct: made in house; host or cells: bacteria
Assay: Vulnerability of peptides to degradation by IDE: 0 vs 4 h pre-incubation, then FRET1 assay
Assay type: biochemical
Settings: 4 h, 4-hr incubation; Cmpd 31.25 uM; relative to DMSO-only controls; individual runs; read-out: Percent Activity (normalized initial velocity of FRET1 hydrolysis)
Ends that are not written are not given here.
observed_property: remaining activity at 31.25 µM (%)
Answer in %, number only, no unit symbol.

Recorded results for 5 substances are shown here.
| substance | remaining activity at 31.25 µM / % |
| --- | --- |
| WSPISGKFFQRF [P12-4] | 84.9 |
| VHWDFRQW-NH2 [P12-1B] | 51.8 |
| VHWDFRQWWQPS-NH2 [P12-1A] | 33.7 |
| WSPISGKFFQRF-NH2 [P12-4A] | 35.7 |
| VHWDFRQWWQPS [P12-1] | 42.7 |

(Q) Fill: remaining activity at 31.25 µM (IDE (Homo sapiens)) for this substance QSLPWCYP-NH2 [P12-3B]
(A) 80.9

(Q) Fill: remaining activity at 31.25 µM (IDE (Homo sapiens)) for this substance Ac-FRQWWQPS [P12-1C]
(A) 78.2

---

Target: IDE (Homo sapiens, UniProt P14735)
Construct: made in house; host or cells: bacteria
Sequence (P14735 whole entry): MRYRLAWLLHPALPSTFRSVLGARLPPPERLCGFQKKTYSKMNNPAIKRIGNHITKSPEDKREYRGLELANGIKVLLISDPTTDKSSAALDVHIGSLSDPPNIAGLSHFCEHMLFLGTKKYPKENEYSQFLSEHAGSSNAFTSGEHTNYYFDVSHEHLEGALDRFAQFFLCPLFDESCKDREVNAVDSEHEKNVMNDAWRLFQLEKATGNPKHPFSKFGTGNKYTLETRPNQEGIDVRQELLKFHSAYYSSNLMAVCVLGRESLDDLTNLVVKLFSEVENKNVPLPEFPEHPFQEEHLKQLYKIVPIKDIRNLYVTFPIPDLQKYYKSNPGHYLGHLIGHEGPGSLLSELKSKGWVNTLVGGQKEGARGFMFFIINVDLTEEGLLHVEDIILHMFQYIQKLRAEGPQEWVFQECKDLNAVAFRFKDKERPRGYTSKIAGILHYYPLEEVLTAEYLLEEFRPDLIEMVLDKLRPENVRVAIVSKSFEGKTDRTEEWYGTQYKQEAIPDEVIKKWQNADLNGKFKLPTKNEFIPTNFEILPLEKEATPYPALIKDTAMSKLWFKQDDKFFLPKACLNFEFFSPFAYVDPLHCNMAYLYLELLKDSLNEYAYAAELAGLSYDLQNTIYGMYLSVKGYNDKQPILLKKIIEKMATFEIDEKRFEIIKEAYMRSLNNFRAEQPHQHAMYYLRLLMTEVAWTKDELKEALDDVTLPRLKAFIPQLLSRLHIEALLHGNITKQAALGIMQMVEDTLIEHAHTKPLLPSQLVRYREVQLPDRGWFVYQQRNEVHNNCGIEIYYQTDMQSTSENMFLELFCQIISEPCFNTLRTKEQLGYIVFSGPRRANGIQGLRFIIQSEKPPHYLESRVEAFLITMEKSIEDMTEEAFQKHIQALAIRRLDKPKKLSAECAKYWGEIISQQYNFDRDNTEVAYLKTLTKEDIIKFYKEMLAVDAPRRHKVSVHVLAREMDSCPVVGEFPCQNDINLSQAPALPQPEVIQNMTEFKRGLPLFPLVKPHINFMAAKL
Test: biochemical
Conditions: judged as IC50 <100 uM?; individual replicates; read-out: Percent activity at 500 uM, Replicate 1-4
Ends that are not written are not given here.
Reported remaining activity at 500 µM by item:
Answer in %, number only, no unit symbol.

Recorded results for 10 substances are shown here.
| substance | units | remaining activity at 500 µM |
| --- | --- | --- |
| QSLPWCYP-NH2 [P12-3B] | % | 27.1 |
| Ac-PISGKFFQ-NH2 [P12-4D] | % | 91.1 |
| Ac-FPMPSRPH-NH2 [P12-2D] | % | 88.8 |
| Ac-SGKFFQRF [P12-4C] | % | 77.6 |
| Ac-MPSRPHSS [P12-2C] | % | 72.7 |
| LNFPMPSRPHSS [P12-2] | % | 59.9 |
| WSPISGKFFQRF [P12-4] | % | 15.5 |
| Ac-FRQWWQPS [P12-1C] | % | 33.8 |
| VHWDFRQWWQPS [P12-1] | % | 17.6 |
| LNFPMPSRPHSS-NH2 [P12-2A] | % | 58.5 |

(Q) Fill: remaining activity at 500 µM (IDE (Homo sapiens, UniProt P14735)) for this substance WSPISGKF-NH2 [P12-4B]
(A) 86.6

(Q) Fill: remaining activity at 500 µM (IDE (Homo sapiens, UniProt P14735)) for this substance VHWDFRQW-NH2 [P12-1B]
(A) 32.1

(Q) Fill: remaining activity at 500 µM (IDE (Homo sapiens, UniProt P14735)) for this substance WSPISGKFFQRF-NH2 [P12-4A]
(A) 17.7

---

Reported remaining activity at 500 µM by item:
Target: IDE (Homo sapiens, UniProt P14735)
Construct: made in house; host or cells: bacteria
Assay: biochemical
Conditions: initial test; percent of initial velocity relative to DMSO-only controls; N 4; read-out: Percent activity at 500 uM, Mean
Bridge positions count the residues as written; N and C are the ends. Peptide text beside a SMILES is read from it.
Answer in %, number only, no unit symbol.

Recorded results for 3 compounds are shown here.
| compound | units | remaining activity at 500 µM |
| --- | --- | --- |
| CC(C)C[C@@H]1NC(=O)[C@H](Cc2c[nH]cn2)NC(=O)CNC(=O)[C@H](C)NC(=O)[C@H](CC(N)=O)NC(=O)[C@@H](NC(=O)[C@H](C)N)CSSC[C@@H](C(=O)NCC(=O)O)NC(=O)[C@H](CCC(N)=O)NC(=O)[C@H](CO)NC1=O [C7C-2] (H-ACNAGHLSQCG-OH; disulfide 2-10 (inferred)) | % | 54 |
| CC[C@H](C)[C@@H]1NC(=O)[C@H](CO)NC(=O)[C@H](Cc2c[nH]c3ccccc23)NC(=O)[C@H](Cc2c[nH]c3ccccc23)NC(=O)[C@H](CO)NC(=O)[C@@H](NC(=O)[C@H](C)N)CSSC[C@@H](C(=O)NCC(N)=O)NC(=O)[C@H](CC(C)C)NC(=O)[C@H](Cc2c[nH]cn2)NC1=O [C7C-1A] (H-ACSWWSIHLCG-NH2; disulfide 2-10 (inferred)) | % | 22.5 |
| CC[C@H](C)[C@@H]1NC(=O)[C@H](CO)NC(=O)[C@H](Cc2c[nH]c3ccccc23)NC(=O)[C@H](Cc2c[nH]c3ccccc23)NC(=O)[C@H](CO)NC(=O)[C@@H](NC(=O)[C@H](C)N)CSSC[C@@H](C(=O)NCC(=O)NCC(=O)NCC(=O)O)NC(=O)[C@H](CC(C)C)NC(=O)[C@H](Cc2c[nH]cn2)NC1=O [C7C-1B] (H-ACSWWSIHLCGGG-OH; disulfide 2-10 (inferred)) | % | 30.4 |

Please examine the following record next.
(Q) Hello, please tell me recorded remaining activity at 500 µM for this one: CC(C)C[C@H](NC(=O)[C@H](CO)NC(=O)[C@@H](N)CCC(N)=O)C(=O)N1CCC[C@H]1C(=O)N[C@@H](Cc1c[nH]c2ccccc12)C(=O)N[C@H]1CSSC[C@@H](C(=O)N[C@H](C(=O)N[C@H](C(N)=O)[C@@H](C)O)C(C)C)NC(=O)[C@H](Cc2c[nH]cn2)NC(=O)[C@@H]2CCCN2C(=O)[C@H](Cc2ccc(O)cc2)NC1=O [P12-3A] (H-QSLPWCYPHCVT-NH2; disulfide 6-10 (inferred))
(A) 3.6

Taken from paper PMC5814047.
